# credit: the supplement of paper PMC4862054

Overview of reported drug sensitivity score across a group of compounds:
- System: MDA-MB-436
- Assay remarks: drug sensitivity score (DSS), CellTox Green (DSS (AUC-based score)); higher = stronger drug effect (viability inhibition or cytotoxicity); extreme values may be limits of the assay
- Applied conditions: incubation time: 72 h
Give a plain numeric answer without units written out.

Below are worked cases with known answers.
C[C@@H]1C=C2C(=O)O[C@@H]3CC[C@H](C1)[C@]23O : 0
CCCC(CCC)C(=O)O : 0
Nc1nccc(-c2c(-c3ccc(F)cc3)ncn2C2CCCCC2)n1 : 0
CS(=O)(=O)CCNCc1ccc(-c2ccc3ncnc(Nc4ccc(OCc5cccc(F)c5)c(Cl)c4)c3c2)o1 : 0
C[C@@]1(C(=O)Nc2ccc(F)nc2)CCCN1c1nc(Nc2cc(C3CC3)n[nH]2)c2cccn2n1 : 0
O=C(c1ccc(OCCN2CCCCC2)cc1)c1c(-c2ccc(O)cc2)sc2cc(O)ccc12 : 0
CCOc1cc2ncc(C#N)c(Nc3ccc(OCc4ccccn4)c(Cl)c3)c2cc1NC(=O)/C=C/CN(C)C : 0
COC(=O)C[C@](O)(CCCC(C)(C)O)C(=O)O[C@@H]1C(OC)=C[C@]23CCCN2CCc2cc4c(cc2[C@H]13)OCO4 : 1.54
COc1cc(Nc2ncc(F)c(Nc3ccc4c(n3)NC(=O)C(C)(C)O4)n2)cc(OC)c1OC : 0
CCS(=O)(=O)c1cccc(-c2cc(C(=O)NC3CCN(C)CC3)c(C)c3[nH]c4ncc(C)cc4c23)c1 : 0

Please give the measured drug sensitivity score for this compound: Cc1cc(C(C)Nc2ccccc2)c2nc(N3CCOCC3)cc(=O)n2c1 (configuration not stated)
0

Follow-up item: CC(=O)O[C@H]1C(=O)[C@@]2(C)[C@H]([C@H](OC(=O)c3ccccc3)[C@]3(O)C[C@H](OC(=O)[C@H](O)[C@@H](NC(=O)c4ccccc4)c4ccccc4)C(C)=C1C3(C)C)[C@]1(OC(C)=O)CO[C@@H]1C[C@@H]2O
7.09

###

- Tested on: MDA-MB-231
- Assay remarks: normalised response (% of control), CellTiter-Glo; higher = more viable cells (100 = DMSO, 0 = benzethonium chloride kill control)
- Applied conditions: incubation time: 72 h
Measure: normalised response (%)
Please state the figure in %; there is no need to write the unit.

Please give the measured normalised response for this molecule: FC(F)c1nc2ccccc2n1-c1nc(N2CCOCC2)nc(N2CCOCC2)n1 [ZSTK474] (1 nM)
99.7

Follow-up item: C[C@@H]1CCN(C(=O)CC#N)C[C@@H]1N(C)c1ncnc2[nH]ccc12 [Tofacitinib] (5 nM)
103

###

- Test system: HCC1599
- Assay remarks: normalised viability (% of control), CellTiter-Blue; higher = more viable cells (100 = DMSO, 0 = benzethonium chloride kill control)
- Applied conditions: incubation time: 72 h
Overview of reported normalised viability across a group of compounds:
Field: value (include unit after the number)

Cn1c(=O)c(F)c(Nc2ccc(I)cc2F)c2c(=O)n(C[C@@H](O)CO)cnc21 [TAK-733] (0.1 nM) : 73.2%
COc1ncc(-c2ccc3nccc(-c4ccnnc4)c3c2)cc1NS(=O)(=O)c1ccc(F)cc1F (0.1 nM) : 83.8%

Param readout = normalised viability; param system = HCC1599; param query = CC(C)C[C@H](NC(=O)[C@H](Cc1ccccc1)NC(=O)c1cnccn1)B(O)O [Bortezomib] (0.1 nM) ; response: value
122%
